The values you see were collected from paper PMC4535766.

Please go through the items and note down their pIC50.
System: intracellular amastigotes of L. donovani strain MHOM-ET-67/L82
Assay: Activity against Leishmania donovani intracellular amastigotes in mouse peritoneal macrophages
Details: Leishmania donovani, Peritoneal macrophage, in Mus musculus, 96 h, read-out: IC50 L. don. intracell
pIC50: −log10 of the molar value. Counter-ions that a name gives are not always drawn.

Enquiry: # return recorded pIC50 for input "CCC[C@@H]1C[C@@H](C(=O)N[C@@H]([C@H]2O[C@H](SC)[C@H](O)[C@@H](O)[C@H]2O)[C@@H](C)O)N(C)C1"
Return: < 4.13

Enquiry: # return recorded pIC50 for input "NC12CC3CC(CC(C3)C1)C2"
Return: < 3.70

Enquiry: # return recorded pIC50 for input "Cc1cccc(C)c1OCC(=O)N[C@@H](Cc1ccccc1)[C@@H](O)C[C@H](Cc1ccccc1)NC(=O)[C@H](C(C)C)N1CCCNC1=O"
Return: < 4.32

Enquiry: # return recorded pIC50 for input CC1CS(=O)(=O)CCN1/N=C/c1ccc([N+](=O)[O-])o1 (stereo not shown)
Return: 4.68

Enquiry: # return recorded pIC50 for input "Nc1nc2c(ncn2CCC(CO)CO)c(=O)[nH]1"
Return: < 3.93

Enquiry: # return recorded pIC50 for input C[C@H]1[C@H](OC(=O)CCC(=O)O)O[C@@H]2O[C@@]3(C)CC[C@H]4[C@H](C)CC[C@@H]1[C@@]24OO3 [Artesunate]
Return: < 5.11

Enquiry: # return recorded pIC50 for input O=C(Nc1ccc([N+](=O)[O-])cc1Cl)c1cc(Cl)ccc1O [Niclosamide]
Return: < 6.51

Enquiry: # return recorded pIC50 for input CO[C@H]1/C=C/O[C@@]2(C)Oc3c(C)c(O)c4c(O)c(cc(O)c4c3C2=O)NC(=O)/C(C)=C\C=C\[C@H](C)[C@H](O)[C@@H](C)[C@@H](O)[C@@H](C)[C@H](OC(C)=O)[C@@H]1C [Rifamycin SV (Sodium salt), Rifamycin SV]
Return: < 4.86

Enquiry: # return recorded pIC50 for input CC[C@H]1OC(=O)[C@H](C)[C@@H](O[C@H]2C[C@@](C)(OC)[C@@H](O)[C@H](C)O2)[C@H](C)[C@@H](O[C@@H]2O[C@H](C)C[C@H](N(C)C)[C@H]2O)[C@](C)(O)C[C@@H](C)C(=O)[C@H](C)[C@@H](O)[C@]1(C)O [Erythromycine (Hydrate), Erythromycine]
Return: < 4.40

Enquiry: # return recorded pIC50 for input "CC(=O)OCC(CCn1cnc2cnc(N)nc21)COC(C)=O"
Return: < 4.03

Enquiry: # return recorded pIC50 for input "CC(C)CN(C[C@@H](O)[C@H](Cc1ccccc1)NC(=O)O[C@H]1CO[C@H]2OCC[C@H]21)S(=O)(=O)c1ccc(N)cc1"
Return: < 4.26

Enquiry: # return recorded pIC50 for input "CC(C)(C)NC(=O)[C@@H]1C[C@@H]2CCCC[C@@H]2CN1C[C@@H](O)[C@H](Cc1ccccc1)NC(=O)[C@H](CC(N)=O)NC(=O)c1ccc2ccccc2n1"
Return: < 4.35

Enquiry: # return recorded pIC50 for input "CCCSc1ccc2nc(NC(=O)OC)[nH]c2c1"
Return: < 5.42

----------
Please go through the items and note down their IC50 at 96 h.
Experiment: Cytotoxicity on macrophages infected with L. donovani
Format: cell-based, mouse
Conditions: mouse, macrophages infected with L. donovani; read-out: IC50 Cytotox. mac.inf.

Enquiry: # return recorded IC50 at 96 h for input Cc1c(O)cccc1C(=O)N[C@@H](CSc1ccccc1)[C@H](O)CN1C[C@H]2CCCC[C@H]2C[C@H]1C(=O)NC(C)(C)C [Nelfinavir]
Return: > 52.8 µM

Enquiry: # return recorded IC50 at 96 h for input CN(C)CCC=C1c2ccccc2CCc2ccccc21 [Amitriptyline]
Return: 36.1 µM

Enquiry: # return recorded IC50 at 96 h for input Cc1ncc([N+](=O)[O-])n1CC(C)O (centres unmarked) [Secnidazole]
Return: > 161 µM

Enquiry: # return recorded IC50 at 96 h for input CCN(CCCCOC(=O)c1ccc(OC)c(OC)c1)C(C)Cc1ccc(OC)cc1 (centres unmarked) [Mebeverine]
Return: > 69.8 µM

Enquiry: # return recorded IC50 at 96 h for input Nc1nc2c(ncn2CCC(CO)CO)c(=O)[nH]1 [Penciclovir]
Return: > 118 µM
